- TARGET OR TEST SYSTEM: C5a receptor (Homo sapiens, UniProt P21730)
- Sequence (P21730 whole entry): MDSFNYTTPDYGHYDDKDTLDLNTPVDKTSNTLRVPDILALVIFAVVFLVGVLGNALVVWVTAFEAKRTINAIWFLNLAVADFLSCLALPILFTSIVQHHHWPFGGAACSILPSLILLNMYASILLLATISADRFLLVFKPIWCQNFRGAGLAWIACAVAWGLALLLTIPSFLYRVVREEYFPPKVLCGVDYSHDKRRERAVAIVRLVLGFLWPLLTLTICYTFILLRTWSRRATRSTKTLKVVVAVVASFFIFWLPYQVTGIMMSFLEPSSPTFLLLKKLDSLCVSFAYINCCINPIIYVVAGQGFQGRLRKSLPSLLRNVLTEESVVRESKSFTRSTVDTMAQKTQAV
- TEST: [125I]-C5a Radioligand Binding Assay (competition binding, differentiated U937 cells);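 further: cells preincubated with compound 30 min at room temperature, then 60 min at 4 °C with radioligand, bound counts read by scintillation, nonspecific binding defined with 100 nM C5a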
- RUN PARAMETERS: test compound 1 μM; [125I]-C5a 0.05 nM; U937 cells; multiple values = duplicate experiments
Threshold 60%. [125I]-C5a Binding % Inhibition 1 μM below it: Y. [125I]-C5a Binding % Inhibition 1 μM at it or above: N.

Challenge: Dear colleague, could you confirm whether [125I]-C5a Binding % Inhibition 1 μM of CCc1cccc(CC)c1-c1cc(OC)c2c(n1)CCC[C@H]2N(CC)c1cccc2ccccc12 falls below 60%? Thanks.
Response given: N

Challenge: Dear colleague, could you confirm whether [125I]-C5a Binding % Inhibition 1 μM of CCc1cccc(CC)c1-c1cc(OC)c2c(n1)CCCC2N(C)c1ccccc1 (centres unmarked) falls below 60%? Thanks.
Response given: Y

Challenge: Dear colleague, could you confirm whether [125I]-C5a Binding % Inhibition 1 μM of CCc1cccc(CC)c1-c1cc(OC)c2c(n1)CCCC2N(C)CCCc1ccccc1 (centres unmarked) falls below 60%? Thanks.
Response given: Y

Challenge: Dear colleague, could you confirm whether [125I]-C5a Binding % Inhibition 1 μM of CCc1cccc(CC)c1-c1cc(OC)c2c(n1)CCCC2N(C)c1cccc2cc(OC)ccc12 (centres unmarked) falls below 60%? Thanks.
Response given: N

Challenge: Dear colleague, could you confirm whether [125I]-C5a Binding % Inhibition 1 μM of CCc1cccc(CC)c1-c1cc(OC)c2c(n1)CCCC2Nc1cccc2ccccc12 (centres unmarked) [Compound 132] falls below 60%? Thanks.
Response given: Y

Challenge: Dear colleague, could you confirm whether [125I]-C5a Binding % Inhibition 1 μM of CCN(c1cccc2ccccc12)C1CCCc2nc(-c3cccc4ccccc34)cc(OC)c21 (centres unmarked) falls below 60%? Thanks.
Response given: N

Challenge: Dear colleague, could you confirm whether [125I]-C5a Binding % Inhibition 1 μM of CCc1cccc(CC)c1-c1cc(OC)c2c(n1)CCCC2N(C)c1cccc2ccccc12 (racemic) falls below 60%? Thanks.
Response given: N

Challenge: Dear colleague, could you confirm whether [125I]-C5a Binding % Inhibition 1 μM of CCN(c1cccc2ccccc12)C1CCCc2nc(-c3c(OC)cccc3OC)cc(OC)c21 (centres unmarked) falls below 60%? Thanks.
Response given: Y
